- TEST PROTOCOL: folding stability dG unfold from trypsin proteolysis; higher = more stable
Is folding stability dG unfold at least 1 kcal/mol? Then MET. If not, NOT MET.

Q: Item SAGGSAGGSAGGMPVLVNIELPIPGTNETLTLEVEAEGPGGEEVEKEAQETAEKVLEESSAGGSAGGSAGGS [r10_863_JUSTAS] with folding stability dG unfold of 1 kcal/mol or above?
Ans: MET

Q: Given the entry SAGGSAGGSKAGQPIEGPVKIKFTSNGKPHEIDVEVYVLPPGNLIIYFPDESIMLPADNIEIESAGGSAGGS [r12_790_TrROS] , answer whether its folding stability dG unfold meets or surpasses 1 kcal/mol.
Ans: MET

Q: Check if folding stability dG unfold >= 1 kcal/mol (inclusive). Item: SAGGSAGGSAGNMKEVEFTIPGAPPDELADNLPPGIKDVEIERNPEARENGGYSIKAYVDSAGGSAGGSAGG [r11_1002_TrROS]
Ans: NOT MET

Q: I'd appreciate it if you could say whether SAGGSAGGPLVLRIETPEDKVLVLVLPEEAEKLPPKELAEIAAKEFAALPGVKEVKVEIAPLPLSAGGSAGG [r6_710_TrMRF] has folding stability dG unfold at least equal to 1 kcal/mol.
Ans: NOT MET

Q: Does the reported folding stability dG unfold for SAGGSAGGSAGGSMLKGKIISVDPKKGYAIIYIPGKKKLLIIKFDPDNTIVEIKEAPLSSAGGSAGGSAGGS [r4_192_TrMRF] fall at or above the 1 kcal/mol mark?
Ans: MET

Q: Entry SAGGSAGGSAGGSAELLEVLEVTKTGSGYTVKVLERSPELGPSVRTESFPADDTSVLLLSAGGSAGGSAGGS [r4_253_JUSTAS] : is its folding stability dG unfold no less than 1 kcal/mol?
Ans: NOT MET

Q: Given SAGGSAGGWIEINILVPLKPGQTPSELADEIAQEFQNQHGWEIKIDDVYPTDNYVWHKIEITPPSAGGSAGG [r6_639_TrROS] , state whether its folding stability dG unfold is at least 1 kcal/mol.
Ans: NOT MET

Q: Could you please find out whether SAGGKTLYVVRITRRVRVDGKLYEVTLTLVAESEEEAEEALRKLAEELEALFPDEIRIEVEKVELPPSAGGS [r16_475_TrROS_Hall] has folding stability dG unfold that meets 1 kcal/mol or exceeds it?
Ans: MET

Q: Given SAGGSAGGSASWITITGLLPGGRLVTTRYDPSTGSVSTETTPIPPVPAFPLGPENLALNFLLSAGGSAGGSA [r18_236_JUSTAS] , state whether its folding stability dG unfold is at least 1 kcal/mol.
Ans: NOT MET

Q: // inclusive: folding stability dG unfold at least 1 kcal/mol? input: SKKKKKKTIKIKITIKVEKEVKIRIIYNGKEKEITIKPGETKTIEITFPAGKVIIEIYKDGKPIKKIEIKSA [r9_411_TrROS_Hall]
Ans: MET

Q: Decide: is the reported value of folding stability dG unfold for SAGGSASRRLFVRTLPDDAVIVVEVPPGMSEEEAVEIAERRAEAAERVLRAAIEAERAGKAPVIPLSAGGSA [r15_704_TrMRF] equal to or greater than 1 kcal/mol?
Ans: NOT MET

Q: Is it the case that SAGGSAGGEVKTIEIEIEITDEDGRKYRIKMEAEVLPNGEIIIRMEIEDEETNETYEMTIVLKPSAGGSAGG [r6_726_TrROS_Hall] has folding stability dG unfold reaching or exceeding 1 kcal/mol?
Ans: MET

Q: Is folding stability dG unfold for SAGGSAGGSPPFTITFIDENGKGVKKINLPFDPKKPSVLPLSEEEIKALKEELGPEAKSITLSSAGGSAGGS [r12_514_JUSTAS] at or above 1 kcal/mol?
Ans: NOT MET

Q: I'd appreciate it if you could say whether SAGGSAGGSAGGSKIEIEEENGELKITIEVDGKKYEITIPKDMTLEEALKKALEKLPGLSAGGSAGGSAGGS [r4_191_TrROS_Hall] has folding stability dG unfold at least equal to 1 kcal/mol.
Ans: MET

Q: Does SAGGTVTIFIPGMSLDQIKKFIKFFRDNPDRPVTIHMPNGYMIEIDPKGKIDNIKVRRMPPMPEDDQSAGGS [r16_248_TrROS] have a reported folding stability dG unfold of at least 1 kcal/mol?
Ans: MET

Q: Form field: folding stability dG unfold at least 1 kcal/mol? Entry: SAGLGLEKAKKLAEKIAETLKKELEKELGIPADQIKVEAKVEKLPDGSYKITVKINLKDIPIEKVFYVDSAG [r14_226_TrMRF]
Ans: MET

Q: folding stability dG unfold >= 1 kcal/mol for SMMYLVNLRVEVYKDGKLVEEKEIAIAAPVEEALKIAEAIKESHPDAEVKVEIEVYEIPEDDPEFKEAFASA [r9_782_TrMRF] ?
Ans: MET

Q: Decide: folding stability dG unfold of SAGGSAGGSAGDTSVEYEVSVTVEVFPLPDYALVKVTLEVDYPDGSKEKVEYVFLVSPYEGSAGGSAGGSAG [r3_330_TrMRF] >= 1 kcal/mol?
Ans: MET

Q: # check: folding stability dG unfold of SAGGGEVKKVTYVVVIELPPDPETGEPHPLPLVLEREYPADDPEAVESDIKKALDEIDIPEEAKEALSAGGS [r16_40_TrMRF] is greater than or equal to 1 kcal/mol
Ans: NOT MET

Q: Kindly determine if folding stability dG unfold recorded for SAGGSADVVLVEVRPPVLDPEGRPLLTLVLRLPDGGSRTLVVELSDLAGALANLPPNVRVDEIRPLSAGGSA [r15_339_TrMRF] is above or exactly 1 kcal/mol.
Ans: NOT MET

Q: Can SAGGSAGGSAGSVTLPKNQVGVSVESYEVTLPDETGESVTRYKITLRFAETGLSAEFYAGSAGGSAGGSAGG [r17_266_TrMRF] be said to have folding stability dG unfold at or above 1 kcal/mol?
Ans: MET

Q: Check the entry SAGGSAGGSAGKPVTLTDANGTPYSVSQVTTDPNSATVTATFTSPTSSTTHTATYPVTPASAGGSAGGSAGG [r11_290_JUSTAS] : does folding stability dG unfold equal or exceed 1 kcal/mol?
Ans: MET

Q: Could you tell me if the measured folding stability dG unfold of SAGGSAMPPGEPIGSFSFPFNNGGNLMISAYPGGEIKISWWGPDGRPHEHEFPVKVKPPPPEDEGKSAGGSA [r15_478_TrROS] reaches 1 kcal/mol or more?
Ans: MET

Q: Hello, I need to know if SAGGSAGGEATEGTLIVGGKPVRVTVERTPEGGRIATVELPNGVTVVARLNPVTRGAEILEVVESAGGSAGG [r6_290_TrMRF] has measured folding stability dG unfold not below 1 kcal/mol. Thanks!
Ans: NOT MET

Q: For this sequence, is measured folding stability dG unfold 1 kcal/mol or higher? SAGGPPGWKPVEMKITVMFDDPEEAAEKIKEEVRSHFPNIEITKVEVQRNPENNMYMVTVDIRMWVPSAGGS [r8_120_TrROS]
Ans: MET

Q: Say whether SAGGSQEELAKQLAEELAKKEGLKEVKVSITPSPGPVLNITFEFYDENGNKKGVKSKTIPLPPDLLSAGGSA [r2_153_JUSTAS] shows folding stability dG unfold of 1 kcal/mol or more.
Ans: MET
